Listing: melting point of selected compounds

Request: Record request: melting point value, item COc1ccc(C(C#N)=NOS(=O)(=O)C(C)C)cc1
Response: 72 °C

Request: Endpoint output: melting point of O=C1Cc2cccc(S(=O)(=O)c3ccc(Cl)cc3)c2N1 . Value?
Response: 218 to 221 °C

Request: What value of melting point has been recorded for this entry: CC(C)c1nc2cc(N)ccn2n1
Response: 174 to 176 °C

Request: What value of melting point has been recorded for this entry: C=CCCC(C#N)(C#N)Cc1ccc(OCC(F)(F)F)cc1
Response: 58 °C

Request: GET /values?readout=melting point&item= O=C(Nc1cc2nc(-c3ccc(C(=O)C4CCCCCC4)cc3)[nH]c2cn1)C1CCCCCC1
Response: 194 °C

Request: Name the recorded melting point for CN1CCN(c2cccc3c2C[C@H](NC(=O)c2ccc(N4CCOCC4)cc2)CO3)CC1 .
Response: 210 to 212 °C

* * *

The molecules listed here are annotated with their melting point.

Solved cases below.
CCC1CCC(c2ccc(-c3cc(F)c(C(F)(F)Oc4cc(F)c(C(F)(F)F)c(F)c4)c(F)c3)c(F)c2)CC1 (stereo not given) :: 77 °C
COc1cc2c(cc1OCc1ccccc1)CC(C)(C)N(C(=O)c1cc(OC)c(OC)c(OC)c1)C2C (stereo not given) :: 175 to 177 °C
CCC1=C(C(=O)Nc2ccc(Cl)c(C(=O)OC(C)C)c2)SCCO1 :: 90 to 92 °C
CCc1cc(C#N)cc(C(=O)Nc2ccn(C)n2)n1 :: 164 °C
Cc1ccc(-c2ccc3c(c2)C=C(C(=O)Nc2ccc(CN4CCCCC4)cc2)CC3)cc1 :: 187 to 189 °C

Request: # query: melting point of entry CN(C)NC(=O)C1(N2C(=O)c3cccc(Cl)c3C2=O)CCCCC1
Response: 184 to 185 °C

Request: Look up melting point: COC(=O)NC1=NCC(c2cc(Cl)ccc2Cl)CN1 (stereo not given)
Response: 231 to 234 °C

Request: So what does the record say about melting point for COc1cc(O)c2c(c1O)C1C=CC2C1 (stereo not given) ?
Response: 151 to 153 °C

Request: Param item = CCc1nc2c(C)nc(C)cc2n1-c1ccc(CCOC(=O)NS(=O)(=O)c2ccc(C)cc2)cc1 ; retrieve measured melting point.
Response: 158 °C

Request: Entry Cc1c2c(nc3ccccc13)C(=Cc1ccc(Cl)c(Cl)c1)CC2 has what melting point?
Response: 187 to 188 °C

* * *

MEASUREMENT_KIND: melting point

CCCc1c(/C=C/c2ccccc2)nc2ccc(C(=O)O)cn2c1=O :: 250 to 252 °C
CC(C)(C)C(OC(=O)Nc1ccccc1)C(=CC1CCCCC1)n1cncn1 (stereo not given) :: 156 °C
CC(C)(C)OC(=O)c1ccccc1-c1ccc(CNC(=O)C2(N)CCOCC2)cc1 :: 125 to 127 °C

Request: Give the measured melting point of NCCCCCC(=O)NC(CCCCN)C(=O)N(NC(=O)OCc1ccccc1)C(=O)OCc1ccccc1 (stereo not given) .
Response: 167 to 168 °C

Request: // melting point lookup, key: CN(C)C(=O)N(C)c1nnc(C(C)(C)C#N)s1
Response: 92 to 94 °C

Request: Which melting point is reported for this molecule? O=C(c1ccc(C(F)(F)F)cc1)c1cc(O)c(O)c([N+](=O)[O-])c1
Response: 116 to 118 °C

Request: Consider the molecule shown here: Cc1cc2c(cc1C#Cc1ccccc1)NC(=O)CC(c1cccc(-c3nccn3C)c1)=N2 What is its recorded melting point?
Response: 202 to 205 °C

Request: What value of measured melting point is listed for COC(=O)c1sc(OC)c(Br)c1O ?
Response: 107 to 109 °C

Request: Any idea what melting point was measured for Nc1ccn(/C=C2/CC2(CO)CO)c(=O)n1 ?
Response: 250 to 253 °C

Request: Name the recorded melting point for Cc1cc(CCCCCOc2cc(Cl)c(-c3nnco3)c(Cl)c2)on1 .
Response: 73 to 74 °C

Request: Can you share its melting point? I mean this molecule: COCCSCC(=O)[C@H](Cc1ccccc1)NC(=O)[C@H](CC(C)C)NC(=O)OCc1ccccc1
Response: 68 to 69 °C

Request: Using the record for NNC(=O)C1(N)CCN(Cc2ccccc2)CC1 , report its melting point.
Response: 231 °C

Request: Dear colleague, I am looking for the recorded melting point of the following molecule: CCOC(=O)c1c(OC(=O)C=C(C)C)c(CC)c(C)[nH]c1=O
Response: 166 °C

Request: Look up melting point: O=C1O[C@@H](Cn2ccnn2)CN1c1ccc(-c2ccc(C3=NOC(C(O)c4ccccc4)C3)nc2)c(F)c1 (stereo not given in full)
Response: 182 °C

Request: Which melting point is listed for Cc1cc(F)ccc1-c1ccc(S(=O)(=O)N2c3ccccc3CC2C(=O)NCc2ccccc2[N+](=O)[O-])cc1 (stereo not given) ?
Response: 64 to 66 °C

Request: What value of melting point has been recorded for this entry: Cc1ccc(S(=O)(=O)NC(=O)OCCc2ccc(-n3c(CCCc4cccnc4)nc4cc(C(F)(F)F)c(Cl)cc43)cc2)cc1
Response: 90 to 95 °C

Request: Record request: melting point value, item Cn1cc(C(=O)O)c([N+](=O)[O-])n1
Response: 185 to 187 °C

Request: Any idea what melting point was measured for CS(=O)(=O)Nc1ccc(NC(=O)C(=O)N2CCC(Cc3ccccc3)CC2)cc1 ?
Response: 221 to 225 °C

Request: Please look up its melting point: COc1ccc2nc(-c3ccc(N)c(I)c3)sc2c1
Response: 179 to 181 °C

Request: Reported melting point, molecule CCCCC(CC)COc1cc(CO)c(-n2c3ccccc3c3ccccc32)cc1CO (stereo not given) : ____
Response: 128 °C

* * *

MEASUREMENT_KIND: melting point

Known melting point results, listed for orientation:
C=CCc1ccc(CCNC(=O)c2cc(Cl)ccc2OC)cc1S(N)(=O)=O :: 186 to 187 °C
O=C1CCC(N2Cc3c(OCc4ccc(CN5CCOCC5)c(Cl)c4)cccc3C2=O)C(=O)N1 (stereo not given) :: 240 to 242 °C
COC(=O)c1cc2ccc(Cl)cc2n1CC#N :: 177 to 178 °C
CN1CCN(c2cccc(-n3cnc4cc(C#N)ccc43)c2)CC1 :: 158 to 160 °C

Now for a further compound.
Request: Given O=C1SCC(O)=C1Cc1ccc2ccccc2c1 , state its recorded melting point.
Response: 238 to 239 °C

* * *

Documented melting point across a set of compounds

Request: State the recorded melting point for this entry: Cc1cc(C)c2nc(C)c(NC(=O)Nc3ccc(F)cc3F)c(-c3ccccc3Cl)c2c1
Response: 234 to 235 °C

Request: Which melting point value belongs to CCCCNS(=O)(=O)c1ccc(N2CCC(NC[C@H](O)COc3cccc4[nH]c5ccccc5c34)CC2)cc1 ?
Response: 166 to 179 °C

Request: Look up melting point for this compound: CNC(=O)c1ccccc1Nc1nc(Nc2ccc3c(c2)CCC(=O)CC3)ncc1Cl
Response: 262 to 269 °C

Request: Returns the measured melting point for the input compound. Input: CC(Oc1ccc(Cl)cc1Cl)c1nnc(N)s1 (stereo unspecified)
Response: 119 to 123 °C

Request: Quick one: melting point for Cn1c(=O)nc(-c2ccccc2)c2ccsc21 ?
Response: 256 to 258 °C

Request: Could you share which melting point value was measured for N#Cc1cc(=O)c2c(o1)c1ccccc1n2-c1ccccc1 ?
Response: 192 to 193 °C

Request: May I ask what melting point has been recorded for Nc1cc[nH]c(=O)c1Cl ?
Response: 264 to 267 °C

Request: State the recorded melting point for this entry: CCn1c(=O)c2[nH]c(/C=C/c3ccc(F)c(Br)c3)nc2n(CC)c1=O
Response: > 300 °C

Request: Fill in: melting point of Cc1ccc(C(=O)NCc2ccccc2)cc1-c1nc(S(C)(=O)=O)nc2c1CNC(=O)N2c1c(F)cccc1F is ___
Response: 239 to 241 °C

* * *

Below, each of the compounds is paired with its reported melting point value.

Reference set (3 entries):
NC(=O)c1ccccc1N1CCC1COc1cncc(F)c1 (centres undefined) :: 71 to 72 °C
Cc1cc(C)c(C2C(=O)N3CCOCCN3C2=O)c(C)c1 :: 248 to 250 °C
CCCCCCCCc1cc2c(cc1C(C)=O)C(C)(C)CCS2(=O)=O :: 77 to 78 °C

Request: Would you mind telling me what melting point value was observed for CCOc1c(C)c(N2CCN(c3ccc(C)cc3)CC2)c(C)c2c1OC(C)(C)C2 ?
Response: 152 to 155 °C

Request: For Cc1cc(-c2cc(C(F)(F)F)n3ncc(C(=O)Nc4cccc(S(=O)(=O)N5CCOCC5)c4)c3n2)ccc1Cl , what is its reported melting point?
Response: 251 °C

Request: What melting point value was documented for this compound, COC(=O)c1snc(-c2ccccc2)c1C(=O)OC ?
Response: 70 to 71.5 °C

Request: Tell me the measured melting point of O=C(NCCCCCNC(=O)c1ccc(OC(F)(F)F)cc1)c1ccc(OC(F)(F)F)cc1 , please.
Response: 154 to 155 °C

Request: State the recorded melting point for this entry: Cc1c(N2CCC(O)CC2)c(F)cc2c(=O)c(C(=O)O)cn(C3CC3)c12
Response: 234 to 236 °C

Request: Which value of melting point has been reported for COc1ccccc1-n1c(=O)[nH]c2c(C(N)=O)nc(-c3ccc(C(N)=O)cc3)nc21 in the records?
Response: > 350 °C

Request: State the recorded melting point for this entry: COc1cc(CNC(=S)NC(COC(=O)C(C)(C)C)Cc2ccc(C(C)(C)C)cc2)ccc1OCCN (centres undefined)
Response: 63 to 65 °C

Request: Please report the recorded melting point for CN1CCC[C@@H]1Cc1c(-c2ccccc2)[nH]c2ccccc12 .
Response: 132 °C

Request: Endpoint output: melting point of COc1cc(N2CCOCC2)ccc1Nc1nc(Nc2cc(F)cc3c2OCCNC3=O)ncc1Cl . Value?
Response: > 230 °C

Request: # get_value(readout='melting point', item= c1ccc(C(N=C2CCCCC2)c2ccccc2)cc1 )
Response: 71 to 72 °C

Request: Please look up its melting point: COC(=O)c1cc(Cl)c(OCCn2ccnc2)s1
Response: 97 to 99 °C

Request: Quick one: melting point of COP(=O)(OC)[C@H](C)NC(=O)[C@H](C)N ?
Response: 103 to 106 °C

Request: melting point for COc1ccc2c(c1)c1c(n2C(=O)c2ccccc2)CCC(C(=O)O)C1 (centres undefined) ?
Response: 216 to 219 °C

Request: Any idea what melting point was measured for O=C1COC(C#Cc2cccnc2)(C(F)(F)F)c2cc(Cl)ccc2N1 (centres undefined) ?
Response: 219 to 221 °C

Request: Which melting point is reported for this compound? COC(=O)C[C@H](O)CC(=O)C=Cc1c(-c2ccc(F)cc2)c(-c2ccc(F)cc2)c(C(=O)NCc2cccc(OC)c2)n1C(C)C
Response: 104 to 116 °C

Request: Given the compound COc1cc2c(c(Cl)c1Cl)C(=O)C(C)(c1ccc([N+](=O)[O-])cc1)C2 (centres undefined) , what is its reported melting point?
Response: 179 to 180 °C
